# EXPERIMENT SUMMARY: Single-dose pharmacokinetics in rats
# MEASUREMENT PARAMETERS: male, Sprague-Dawley, rat, in vivo, 2 mg/kg

[
  {
    "COMPOUND SMILES": "CC(=O)N[C@@H]1C[C@H](NC(C)(C)C)CC[C@@H]1N1CC[C@H](Nc2ncnc3cc(C(C)(C)C)nn23)C1=O",
    "clearance [mL/min/kg]": 49.7
  }
]

----------
# ASSAYED SYSTEM: CCR-2 (Homo sapiens)
# Sequence (P41597 whole entry): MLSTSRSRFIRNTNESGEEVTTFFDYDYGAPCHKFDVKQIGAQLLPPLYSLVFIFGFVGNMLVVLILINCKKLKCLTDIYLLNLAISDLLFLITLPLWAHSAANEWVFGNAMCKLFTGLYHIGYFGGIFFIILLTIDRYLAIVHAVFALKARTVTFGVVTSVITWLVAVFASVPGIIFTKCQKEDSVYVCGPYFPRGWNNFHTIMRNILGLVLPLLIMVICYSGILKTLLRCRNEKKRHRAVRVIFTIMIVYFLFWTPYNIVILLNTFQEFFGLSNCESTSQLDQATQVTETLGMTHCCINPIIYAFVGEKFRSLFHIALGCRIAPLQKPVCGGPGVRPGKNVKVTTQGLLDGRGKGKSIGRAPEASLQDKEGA
# EXPERIMENT SUMMARY: CCR-2 whole blood integrin (CD11b) upregulation
# Type: cell-based
# MEASUREMENT PARAMETERS: human whole blood, MCP-1 10 nM
pIC50: −log10 of the molar value.
READOUT LABEL: pIC50

[
  {
    "COMPOUND": "CC(=O)N[C@@H]1C[C@H](NC(C)(C)C)CC[C@@H]1N1CC[C@H](Nc2ncnc3cc(C(C)(C)C)nn23)C1=O [Example 1]",
    "READOUT LABEL": "pIC50",
    "QUANTITATIVE READOUT": 8.32
  }
]
